These data points were gathered from ChEMBL document CHEMBL1136056.

# measured on: Proteinase-activated receptor 1 (Homo sapiens, UniProt P25116)
# Sequence (P25116 whole entry): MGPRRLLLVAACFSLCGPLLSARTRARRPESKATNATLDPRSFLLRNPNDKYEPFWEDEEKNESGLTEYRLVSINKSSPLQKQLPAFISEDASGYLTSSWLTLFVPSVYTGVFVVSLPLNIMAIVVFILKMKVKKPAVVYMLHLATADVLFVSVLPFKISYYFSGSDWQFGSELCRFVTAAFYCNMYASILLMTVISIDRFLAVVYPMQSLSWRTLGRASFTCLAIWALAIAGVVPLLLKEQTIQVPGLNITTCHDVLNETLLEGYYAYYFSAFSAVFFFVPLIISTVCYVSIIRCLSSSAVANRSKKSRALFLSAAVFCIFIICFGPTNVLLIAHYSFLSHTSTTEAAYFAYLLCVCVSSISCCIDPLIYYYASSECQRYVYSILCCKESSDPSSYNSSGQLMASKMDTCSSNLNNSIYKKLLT
# measurement protocol: Antagonistic activity against thrombin receptor, inhibition of secreted radiolabeled [3H]5-HT from washed human platelets stimulated by 3 uM thrombin receptor activating peptide (TRAP)
# Assay type: functional
metric: IC50 (µM)

>>> number("c1ccc(-c2cc(N(CCCN3CCCCC3)Cc3ccc4c(c3)OCO4)on2)cc1")
0.6
>>> number("CC(C)N(CC(O)c1ccc(C#N)cc1)C(=O)Nc1ccccc1 (stereo not drawn)")
12
>>> number("COc1cc(OC)cc(-c2cc(N(CCCN3CCCCCC3)Cc3ccc4c(c3)OCO4)on2)c1")
0.13
>>> number("c1ccc(-c2ccc(-c3cc(N(CCCN4CCCCCC4)Cc4ccc5c(c4)OCO5)on3)cc2)cc1")
4.44
>>> number("Clc1ccc(-c2cc(N(CCCN3CCCCCC3)Cc3ccc4c(c3)OCO4)on2)cc1")
1.24
>>> number("c1ccc(-c2cccc(-c3cc(N(CCCN4CCCCCC4)Cc4ccc5c(c4)OCO5)on3)c2)cc1")
6.42
>>> number("COc1ccc(-c2cc(N(CCCN3CCCCCC3)Cc3ccc4c(c3)OCO4)on2)cc1")
0.13
>>> number("Fc1ccc(-c2cc(N(CCCN3CCCCCC3)Cc3ccc4c(c3)OCO4)on2)cc1F")
0.5
>>> number("COc1cccc(-c2cc(N(CCCN3CCCCCC3)Cc3ccc4c(c3)OCO4)on2)c1")
0.13
>>> number("COc1ccc(-c2cc(N(CCCN3CCCCCC3)Cc3ccc4c(c3)OCO4)on2)cc1F")
0.07
>>> number("COc1cccc(CN(CCCN2CCCC2)c2cc(-c3ccccc3)no2)c1")
3.3
>>> number("c1ccc(-c2cc(N(CCCN3CCCCC3)Cc3ccc4ccccc4c3)on2)cc1")
2
>>> number("c1ccc(-c2cc(N(CCCCN3CCCCCC3)Cc3cccc4ccccc34)on2)cc1")
5
>>> number("Cc1ccc(-c2cc(N(CCCN3CCCCCC3)Cc3ccc4c(c3)OCO4)on2)cc1")
0.14
>>> number("CSc1ccc(-c2cc(N(CCCN3CCCCCC3)Cc3ccc4c(c3)OCO4)on2)cc1")
0.43
>>> number("C[S+]([O-])c1ccc(-c2cc(N(CCCN3CCCCCC3)Cc3ccc4c(c3)OCO4)on2)cc1 (stereo not drawn)")
3.7
>>> number("Fc1cc(F)cc(-c2cc(N(CCCN3CCCCCC3)Cc3ccc4c(c3)OCO4)on2)c1")
0.09
>>> number("Clc1ccccc1-c1cc(N(CCCN2CCCCCC2)Cc2ccc3c(c2)OCO3)on1")
2.99
